Tested on: Saccharomyces cerevisiae;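 further: PSI is a weighted mean of sequencing reads over stability bins, variants kept only with over 10 reads, mCherry proximal and sfGFP distal, peptide attached via GGGS linker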
Assay text: protein stability index of tFT-peptide fusion (C-terminal peptide) (PSI (0-1 scale)); higher = more stable (slower turnover)
Condition parameters: genetic background: das1 deletion; temperature: 37 C
Each entry below lists one item and its recorded protein stability index value.
Readout type: protein stability index

1. GVGHAWHYFCVC : 0.748
2. NCVDRFKGQKRM : 0.711
3. LGSCSLIYRKFS : 0.703
4. KVLLYWRHAQRQ : 0.733
5. VISVFAISTRVD : 0.568
6. ESCFGMAIFCVT : 0.584
7. LSLWLFRILSVR : 0.499
8. VGGLGWCWVCMA : 0.75
9. FIGVLVYICREG : 0.44
10. MLIAISASAARF : 0.501
